Readout Label: melting point (°C)

Check out these entries, answers already filled in.
>>> numeric_readout("CCC(C)OC (stereo not given)")
-100
>>> numeric_readout("Cc1ccc(/N=N/C2C(=O)NN(c3ccccc3)C2=O)cc1 (stereo not given)")
247

P. O=C(O)CCS
Q. O=C1CCC/C1=C1\C(=O)Nc2ccccc21
R. COc1ccc(C(=O)C2CC2)cc1
S. CC(C)(C)C(=O)C(C)(C)C
Sort by melting point, descending. Reply: labels, ordered per the request.
Q, R, P, S
(Q: 267 °C, R: 42 °C, P: 18 °C, S: -25.2 °C)

====

The entries below come with measured melting point values attached.

Check out these entries, answers already filled in.
>>> result("COc1ccc2c(c1)C(=O)CC2")
"107 to 111 °C"
>>> result("Nc1cccc(S(=O)(=O)N2CCOCC2)c1")
"132 to 135 °C"
>>> result("CN(N)C(=O)c1cc(Cl)ccc1N")
"78 to 81 °C"

API: the following record is the query input.
Record `O=Cc1ccccc1N1CCN(c2ccc(C(F)(F)F)cn2)CC1` , field melting point: 106 to 107 °C

====

Readout Label: melting point

>>> result("Cn1cc([N+](=O)[O-])c(=O)[nH]c1=O")
"267 to 270 °C"
>>> result("O=S(=O)(Cl)c1ccc(-c2cnco2)s1")
"80 to 82 °C"
>>> result("O=[N+]([O-])c1c(O)c(Cl)cc(Cl)c1Cl")
"92.5 °C"
>>> result("Cc1onc(-c2ccc(F)cc2)c1C(=O)O")
"197 to 200 °C"
>>> result("COC(=O)C1C(=O)C(C(=O)OC)C2c3ccccc3C1C(C(=O)OC)C(O)C2C(=O)OC (stereo not drawn)")
"92.2 °C"
>>> result("O=C1C(Cl)=C(Cl)C(Cl)=C(Cl)C1(Cl)Cl")
"46 to 49 °C"
>>> result("CN(N)c1c(N(C)N)c(=O)c1=O")
"201 to 202 °C"

API: the following record is the query input.
Record `Clc1ccc(Cc2c(N=Cc3ccccc3Cl)n[nH]c2N=Cc2ccccc2Cl)cc1` , field melting point: 199 to 201 °C

====

Readout Label: melting point

Check out these entries, answers already filled in.
>>> result("CC(C)(C)N=O")
"81 to 83 °C"
>>> result("Nc1ccc(C(C/C(=N/O)c2ccccc2)NO)cc1 (stereo not drawn)")
"178 to 179 °C"

Record `COc1ccccc1C1CCN(c2ccc(C=O)cc2[N+](=O)[O-])CC1` , field melting point: 116 to 118 °C

====

Readout Label: melting point

>>> result("CC(C)NC(=S)NN")
"96 to 97 °C"

Record `O=C(O)CCCCCCCCCCCCCCC(=O)O` , field melting point: 124 to 126 °C

Record `Cc1oc(-c2ccccc2)nc1CCl` , field melting point: 83 to 84 °C

Record `CC(C)(C)c1cc2c(O)c(c1)Cc1cc(C(C)(C)C)cc(c1O)Cc1cc(C(C)(C)C)cc(c1O)Cc1cc(C(C)(C)C)cc(c1O)Cc1cc(C(C)(C)C)cc(c1O)C2` , field melting point: 310 to 312 °C

Record C=C1C(C)C2C(Cc3ccccc3)NC(=O)C23OC(=O)CCC(O)CCCC(C)CC=CC3C1O (stereo unspecified) , field melting point: 203 to 205 °C

Record `CCNc1ccc([N+](=O)[O-])cc1[N+](=O)[O-]` , field melting point: 108 to 119 °C
